# Test system: Rabbit platelet rich plasma (PRP)
# Method description: Inhibitory activity on platelet aggregation in rabbit platelet rich plasma (light transmission)
# Format: cell-based
# Conditions: compound 3x10^-6 (unit not given); Platelet activating factor (PAF) 10 mg/ml; added to PRP 30 minutes before agent
Note to self: Inhibitory activity on platelet aggregation, PAF under 40% means class 1, ties and anything higher get class 0.

{"columns": ["Molecule", "Cat"],
 "data": [
  ["COC(=O)C1=C(C)NC(C)=C(C(=O)OC/C=C/c2ccccc2Cn2ccnc2)C1c1cccc([N+](=O)[O-])c1 (stereo not drawn)", "class 1"],
  ["COC(=O)C1=C(C)NC(C)=C(C(=O)OC/C=C/c2ccc(Cc3cccnc3)cc2)C1c1cccc([N+](=O)[O-])c1 (stereo not drawn)", "class 1"],
  ["COC(=O)C1=C(C)NC(C)=C(C(=O)OC/C=C/c2ccc(Cn3ccnc3)cc2)C1c1cccc([N+](=O)[O-])c1 (stereo not drawn)", "class 1"],
  ["COC(=O)C1=C(C)NC(C)=C(C(=O)OC/C=C/c2cccc(Cn3ccnc3)c2)C1c1cccc([N+](=O)[O-])c1 (stereo not drawn)", "class 1"],
  ["CCOC(=O)C1=C(C)NC(C)=C(C(=O)OC/C=C/c2ccc(Cn3ccnc3)cc2)C1c1cccc([N+](=O)[O-])c1 (stereo not drawn)", "class 1"],
  ["COC(=O)C1=C(C)NC(C)=C(C(=O)OC/C=C/C=C/c2ccc(Cn3ccnc3)cc2)C1c1cccc([N+](=O)[O-])c1 (stereo not drawn)", "class 0"],
  ["COC(=O)C1=C(C)NC(C)=C(C(=O)OC/C=C/c2ccc(Cn3cncn3)cc2)C1c1cccc([N+](=O)[O-])c1 (stereo not drawn)", "class 1"],
  ["COC(=O)C1=C(C)NC(C)=C(C(=O)OCCON=Cc2ccc(Cn3ccnc3)cc2)C1c1cccc([N+](=O)[O-])c1 (stereo not drawn)", "class 1"],
  ["COC(=O)C1=C(C)NC(C)=C(C(=O)OC/C=C/c2cccc(Cn3ccnc3)n2)C1c1cccc([N+](=O)[O-])c1 (stereo not drawn)", "class 1"],
  ["COC(=O)C1=C(C)NC(C)=C(C(=O)OC/C=C/c2ccc(Cn3ccnc3)s2)C1c1cccc([N+](=O)[O-])c1 (stereo not drawn)", "class 0"],
  ["CC1=C(C(=O)OC/C=C/c2ccccc2)C(c2cccc([N+](=O)[O-])c2)C(C(=O)OC/C=C/c2ccc(Cn3ccnc3)cc2)=C(C)N1 (stereo not drawn)", "class 0"]
]}
